experiment: Storage at 40° C./75% RH for 7 days (one week), form checked by XRPD; format: physicochemical; conditions: 40° C./75% RH, one week (7 days)
observation-type: XRPD after storage at 40° C./75% RH for 7 days

chem-smiles: C=C(C)C(=O)Nc1ccc(-c2c(C3=CC[C@H](C(=O)N4CCCC4)CC3)c3c(N)ncnc3n2C)c(C)c1.CS(=O)(=O)O
value-reported: no change

chem-smiles: C=C(C)C(=O)Nc1ccc(-c2c(C3=CC[C@H](C(=O)N4CCCC4)CC3)c3c(N)ncnc3n2C)c(C)c1.O=S(=O)(O)c1ccccc1
value-reported: no change

---

experiment: Solubility in organic solvents quoted in competitive suspension equilibration studies; assay type: physicochemical; conditions: methanol, organic solvent or mixture
observation-type: Solubility (mg/mL)
Could you give me the number in mg/mL? Just the number is fine.

Return Solubility for the following molecule: C=C(C)C(=O)Nc1ccc(-c2c(-c3ccc(Oc4nccc(C)n4)c(F)c3)c3c(N)ncnc3n2C)cc1.Cl [Compound I-1]
18.7

---

test: Storage at 40° C./75% RH for 7 days (one week), form checked by XRPD; type: physicochemical; conditions: 40° C./75% RH, one week (7 days)
observation-type: XRPD after storage at 40° C./75% RH for 7 days

chem-smiles: Br.C#Cc1cc(OC)c(-c2c(-c3ccc(Oc4nccc(C)n4)c(F)c3)c3c(C)ncnc3n2C)cn1
value-reported: change form

chem-smiles: C=C(C)C(=O)Nc1ccc(-c2c(C3=CC[C@H](C(=O)N4CCCC4)CC3)c3c(N)ncnc3n2C)c(C)c1.Cl
value-reported: no change

chem-smiles: C=C(C)C(=O)Nc1ccc(-c2c(C3=CC[C@H](C(=O)N4CCCC4)CC3)c3c(N)ncnc3n2C)c(C)c1.O=C(O)/C=C/C(=O)O
value-reported: no change

chem-smiles: C#Cc1cc(C)c(-c2c(-c3ccc(Oc4nccc(C)n4)c(F)c3)c3c(C)ncnc3n2C)c(C)n1.O=S(=O)(O)c1ccccc1
value-reported: change form

---

test: Solubility in organic solvents quoted in competitive suspension equilibration studies; format: physicochemical; settings: ethanol, organic solvent or mixture
observation-type: Solubility

Return Solubility for the following compound: C=C(C)C(=O)Nc1ccc(-c2c(-c3ccc(Oc4nccc(C)n4)c(F)c3)c3c(N)ncnc3n2C)cc1.Cl
2300 µg/mL

Value source: patent US12152034B2
